Entry source: patent US20240043507A1

Target Or Test System: spike protein of SARS-CoV-2 strain B.1.351 (SARS-CoV-2, UniProt P0DTC2 14-1273)
Measurement Notes: cell-based or functional assay
Measurement Name: IC50 (FRNT, live virus neutralisation) (mg/L)
Number in mg/L, nothing else.

As a guide, the following entries are already answered.
# Binder, Readout Units, IC50 (FRNT, live virus neutralisation)
data = [
    ("antibody 58 (antibody, V domains shown) VH: QVQLVESGGGLVQPGRSLRLSCAASGFTFDDYAMHWVRQPPGKGLEWVSGVSWNSGTIGYADSVKGRFIISRDNAKNSLYLQMNSLKAEDTALYYCAREVGGTFGVLISREGGLDYWGQGTLVTVSS VL: SYELTQPPSVSVAPGQTARITCGGNTIGSKSVHWYQQRPGQAPVLVVYDDSDRPSGIPERFSGSNSGNTATLTISRVEAGDEADYYCQVWDSSSDRVVFGGGTKLTVL", "mg/L", 0.136),
    ("antibody 222 (antibody, V domains shown) VH: EVQLVESGGGLIQPGGSLRLSCAASGLTVSSNYMSWVRQAPGKGLEWVSVIYSGGSTFYADSVKGRFTISRDNSKNTLYLQMNSLGAEDTAVYYCARGEGSPGNWFDPWGQGTLVTVSS VL: DVVMTQSPGTLSLSPGERATLSCRASQSVPSSYLAWYQQKPGQAPRLLIYGASTRATGIPDRFSGSGSGTDFTLTISRLEPEDFAVYYCQHYDTSPRFGGGTKVDIK", "mg/L", 0.017),
]

Now consider a different binder.
Task item: Find the recorded IC50 (FRNT, live virus neutralisation) belonging to antibody 165 (antibody, V domains shown) VH: QVQLVQSGPEVKKPGTSVKVSCKASGFTFTSSAVQWVRQARGQRLEWIGWIVVGSGNTNYAQKFQESVTITRDMSTSTAYMELSSLRSEDTAVYYCAAPHCIGGSCHDAFDIWGQGTMVTVSS VL: DIVMTQSPGTLSLSPGERATLSCRASQSVRSSYLAWYQQKPGQAPRLLIYGASRRGTGIPDRFSGSGSGTDFTLTISRLEPEDFAVYYCQQYGSSPWTFGQGTKVEIK and report it.
Reply: 0.054
